Molecular target: nitrogenase (Azotobacter vinelandii, UniProt P00459)
Construct: the nitrogenase sample was prepared from a culture of Azotobacter vinelandii; endogenous in cells; host or cells: Azotobacter vinelandii culture; French press lysate, 10,000 x g supernatant (crude)
Sequence (P00459 2-290 limits assumed): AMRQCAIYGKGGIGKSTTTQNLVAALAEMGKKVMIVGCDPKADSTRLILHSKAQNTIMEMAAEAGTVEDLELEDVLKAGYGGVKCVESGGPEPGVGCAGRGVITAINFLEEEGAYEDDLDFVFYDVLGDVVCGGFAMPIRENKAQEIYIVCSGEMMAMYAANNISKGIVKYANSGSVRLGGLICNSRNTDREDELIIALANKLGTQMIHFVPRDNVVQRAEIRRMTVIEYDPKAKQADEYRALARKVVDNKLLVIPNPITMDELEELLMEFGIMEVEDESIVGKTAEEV
Assay: Chloroplast-coupled reduction of acetylene to ethylene by nitrogenase (electron carrier bioassay of Benemann)
Assay type: biochemical
Details: Table I; illuminated spinach chloroplasts; synthetic carriers 2 mM, clostridial ferredoxin 0.2 mM
Where a name gives a salt, the structure may show the parent alone.
OBSERVATION_TYPE: ACTIVITY (nmoles C2 H4 /mg protein/min)

Some entries whose results are on file:
{"COMPOUND": "CC(=O)NCCc1c[n+](C)ccn1.[I-] [Compound 3800]", "TARGET_OF_ASSAY": "nitrogenase (Azotobacter vinelandii, UniProt P00459)", "OBS_VALUE": "2.0 nmoles C2 H4 /mg protein/min"}
{"COMPOUND": "CC(c1c[n+](C)ccn1)S(=O)(=O)[O-] (stereo not drawn) [Compound 2400]", "TARGET_OF_ASSAY": "nitrogenase (Azotobacter vinelandii, UniProt P00459)", "OBS_VALUE": "14.2 nmoles C2 H4 /mg protein/min"}
{"COMPOUND": "C[n+]1ccnc(C(C)(C)[N+](=O)[O-])c1.[I-] [Compound 3700]", "TARGET_OF_ASSAY": "nitrogenase (Azotobacter vinelandii, UniProt P00459)", "OBS_VALUE": "4.2 nmoles C2 H4 /mg protein/min"}
{"COMPOUND": "Cc1c[n+](CCCS(=O)(=O)[O-])ccn1 [Compound 600]", "TARGET_OF_ASSAY": "nitrogenase (Azotobacter vinelandii, UniProt P00459)", "OBS_VALUE": "8.7 nmoles C2 H4 /mg protein/min"}
{"COMPOUND": "Cc1c[n+](C)cc(CO)n1.[I-] [Compound 400]", "TARGET_OF_ASSAY": "nitrogenase (Azotobacter vinelandii, UniProt P00459)", "OBS_VALUE": "3.5 nmoles C2 H4 /mg protein/min"}
{"COMPOUND": "Cc1cnc(CS(=O)(=O)[O-])c[n+]1C [Compound 3200]", "TARGET_OF_ASSAY": "nitrogenase (Azotobacter vinelandii, UniProt P00459)", "OBS_VALUE": "13.3 nmoles C2 H4 /mg protein/min"}
{"COMPOUND": "C[n+]1ccnc(CS(=O)(=O)[O-])c1 [Compound 2800]", "TARGET_OF_ASSAY": "nitrogenase (Azotobacter vinelandii, UniProt P00459)", "OBS_VALUE": "8.3 nmoles C2 H4 /mg protein/min"}
{"COMPOUND": "C[n+]1ccnc(C(CC(O)CO)CC(O)CO)c1 (stereo not drawn) [Compound 1700]", "TARGET_OF_ASSAY": "nitrogenase (Azotobacter vinelandii, UniProt P00459)", "OBS_VALUE": "4.5 nmoles C2 H4 /mg protein/min"}

Name the recorded ACTIVITY (nmoles C2 H4 /mg protein/min) for Cc1c[n+](C)ccn1 [Compound 4300] .
0.7 nmoles C2 H4 /mg protein/min

State the recorded ACTIVITY (nmoles C2 H4 /mg protein/min) for this entry: C[n+]1ccnc(C(CCCS(=O)(=O)[O-])CCCS(=O)(=O)O)c1 (stereo not drawn) [Compound 1800, sodium salt]
16.7 nmoles C2 H4 /mg protein/min

Record request: ACTIVITY (nmoles C2 H4 /mg protein/min) value, item CCCCc1c[n+](C)ccn1 [Compound 5000]
0.0 nmoles C2 H4 /mg protein/min

Return reported ACTIVITY (nmoles C2 H4 /mg protein/min); argument: C[n+]1ccnc(CCO)c1.[I-] [Compound 300]
5.5 nmoles C2 H4 /mg protein/min

I have this compound here, C[n+]1ccnc2ccccc21 [Compound 5200] , and I need its recorded ACTIVITY (nmoles C2 H4 /mg protein/min).
0.0 nmoles C2 H4 /mg protein/min

Query: ACTIVITY (nmoles C2 H4 /mg protein/min); subject: C[n+]1ccnc(CCC(O)CO)c1.[I-] (stereo not drawn) [Compound 1500]
5.5 nmoles C2 H4 /mg protein/min
